Assignment: determine reported folding stability dG unfold for the given sequences.
assay.protocol: folding stability dG unfold from trypsin proteolysis; higher = more stable
# unit: kcal/mol | format: bare number

Look at this sequence and give its reported folding stability dG unfold. SAGGSLPPSTVIESEIVIEIEIENNISGIPGKTEKAFIIIKVTVTTDENGNLSSSVEIEIIPAKDLSAGGSA [r2_448_TrMRF] 3.22

Query: folding stability dG unfold; subject: SAGGSAGGSAGTKEYEVKVGDKIVRISETPDSRVIDYPETDFKKEFSSDFPGKPIAEYLASAGGSAGGSAGG [r11_648_TrMRF] -0.781

Bench note: what folding stability dG unfold did SAGGSAGGMVIVFDKKNKTIYIYDKKTGKKIEIKVKSIEEAKEAIKKLFPNKKVEIVEVKIFKPSAGGSAGG [r6_286_TrROS_Hall] show? 1.43

Give the measured folding stability dG unfold of SAGGSAGGSAGGNWVMIEFNFPPGKKLKIEIPNGRDIQRHRDPDNGTLWFMIPPEAAEDFSAGGSAGGSAGG [r7_155_TrROS] . 0.649

// lookup folding stability dG unfold for SAMVTARVSDSVLRAYRLPDGYVRLVVFDPKTGEPVVEFVVPEDLITDIVEVGDKAVIHVDVKEEDLKLSAG [r14_755_TrMRF] 1.28

Item under review: SEVVFTLKDKPSPEELLKALAAVPGFSLETILKNTKVSPGKTGPKLTIKKEDFEKLEKENPEALEIIRSGSA [r9_160_TrMRF] . Reported folding stability dG unfold? 1.2

# lookup: folding stability dG unfold of SAGGMLPLVVKVKTPDGEEYTFVVAYNPETSELWLPLPKEPTWRNVPLTEASSIPEFQIVEARPLALESAGG [r13_994_TrMRF] 0.348

* * *

I'd appreciate it if you could supply folding stability dG unfold values for the items below.
assay.protocol: folding stability dG unfold (combined trypsin and chymotrypsin); higher = more stable

Reported folding stability dG unfold for SAGGSAGGSAGDENEKPKPKMQMKMIQIKFPPEDLPELAEEFGIDSVHIMPNGSLFIMVYSAGGSAGGSAGG [r11_64_TrROS] : what is it? 1.36 kcal/mol

Using the record for SAGGSAGGSPVVLYEVDPSTNSVTLTVEVLHPDGTPLRKEYTTNGDPLEAALRFAKAVLEEAGSAGGSAGGS [r20_33_TrMRF] , report its folding stability dG unfold. 0.699 kcal/mol

Suppose we examine the sequence SAGGSAGGAANIPADQTLEFPTPDGYRRRLTYYPDEGLLVAEYVNPADGTPTFYTFDIPPDSTLSAGGSAGG [r6_406_TrMRF] ; what folding stability dG unfold value has been reported? 1.21 kcal/mol

Entry SAGGSAGGSAMVVRGEDLTPEALLELLEENPEEVTLETKDHIATVKFNPETGELEITSVDDISAGGSAGGSA [r18_75_TrMRF] has what folding stability dG unfold? 1.6 kcal/mol

Given the entry SAEEPEVVRLEIRITVVERDEDGRLREREVTLEVEVLPDGRVVIRVDGRVFVIDLETGELVEVLEDVEPSAG [r14_821_TrROS_Hall] , report its measured folding stability dG unfold. 4.02 kcal/mol

Which folding stability dG unfold is listed for SAGGSAGGSSPDIEVEITVDAPPGARILGTDGKPVEIPASNPKVKIIVIEGDNSFFIKTEPVGSAGGSAGGS [r12_338_TrMRF] ? < -1 kcal/mol

Reported folding stability dG unfold, sequence SAGGSAGGSAGGDPNDKPKEERRIKIKVRPTNVQRDPDNGMLWYSWRLEGLSITIMIPASAGGSAGGSAGGS [r10_962_TrROS] : ____ 2.85 kcal/mol

Name the reported folding stability dG unfold value associated with the sequence SAGPLEELLARAERVEEDPSTGKRLVYTSDPELVRAALAEGAPDYTLTESPDDRRSALINFPPLPPGVLSAG [r14_115_JUSTAS] -0.0125 kcal/mol

What does the data say about its folding stability dG unfold? Entry: SAGGEPIKIKIDSVQEQPNPDGGPYLYVKITYPDGGRQTGMFDSPEDFKSQLEGEPGFKKIEIEPIRSAGGS [r16_757_TrROS] < -1 kcal/mol

Recorded folding stability dG unfold of SAGGSAGGSAGGLKPGQKVAVFVKVKVKLYRDPATNELTEEVEIEDVFVVDAETKELLLSAGGSAGGSAGGS [r10_248_TrROS_Hall] , please. 2.45 kcal/mol

Which folding stability dG unfold is listed for SMKYVKILLTLKGKPHVITIPSSLSLEEIIDKAIEFAKELGYKDIPKEELKILKVEENPDEEGSSSIIIGSA [r9_1053_TrMRF] ? 3.61 kcal/mol

For the sequence SAGGSAGGSMVTTSIDPSGTAKITVTDGGGVPVSTATIPVDPNAILTYDPNNSSISTFSPVSSSAGGSAGGS [r12_1002_JUSTAS] , what folding stability dG unfold is on record? -0.442 kcal/mol

State the recorded folding stability dG unfold for this entry: SAGGSAGGSSKYIKFIIPANSPEAIEKAKELAEFIKKKYPGIKKIEVKYNPEKGYLEVIAEVESAGGSAGGS [r12_248_TrMRF] 3.96 kcal/mol

Requested field: folding stability dG unfold. Item: SAGGMKVIEVEMTADEVKALVKELAEKDDLKIYIYVDGKKIELTVDEIKKIPPENQKVTIIIEKKKESAGGS [r16_628_TrROS_Hall] 3.07 kcal/mol

# folding stability dG unfold lookup, item SAGGDALKGLPPGAKVKVERVNGKLVVVVEKVEVKPPPKVTLTLPPGWKLTRLELTEDGTLKAELEPSAGGS [r16_103_TrROS_Hall] 1.79 kcal/mol

Need folding stability dG unfold, item SAGGSAGGSAGGSSDIVVTSETLPGPTRLVRITIPEKGETIELTLPASESIEQAVALLLSAGGSAGGSAGGS [r4_393_JUSTAS] 0.381 kcal/mol

Recorded folding stability dG unfold of SAGMKKKKIKKVEIEIKKGEKTIRVKLENGEEIEYKFKEEDLEEALKKIAEKLGLKKGDKIKIVEIEIESAG [r5_923_TrROS_Hall] , please. 1.29 kcal/mol

What does the record list as folding stability dG unfold for SMLLIKITVKNPDGEEKEIVLSAEELRKLFEEETGEEYSLEEIAERLKKLFPNAKVEIVPLEELSEEELKSA [r9_1085_TrROS_Hall] ? 3.31 kcal/mol

Requested field: folding stability dG unfold. Item: SAPLDPDQAKEQAENIADYFQDEMQDQFGMDPSDIDVDVKVEQEPNGHYRITVEITMGNMPIEMEIYVPSAG [r14_226_TrROS] 1.8 kcal/mol

Any idea what its folding stability dG unfold is? The sequence is SAGGPATLTFEFPAEDGSRVRVEVTVEEVPFVDPRTGEPVAPFLKVHVKVTVFDEDGEAHEAEFELLSAGGS [r8_474_TrMRF] 3.73 kcal/mol

// lookup folding stability dG unfold for SAGGSAGGSASSMVKPEKLPNGEKVVVTTETVPDPNSDTPVTVVTTEIYKGDKIVEVKTTLVSAGGSAGGSA [r18_185_JUSTAS] 0.439 kcal/mol

Query (sequence): SAGGSAGGSAGGLLEIELPSRRILVELKLELKDGKLVKLEIKVKYEGREPEPLTSPEYKSAGGSAGGSAGGS [r10_1043_TrMRF] ; field requested: folding stability dG unfold 1.76 kcal/mol

Which measured folding stability dG unfold value corresponds to SAGGMVTITVSIEEGKGYAVITITIDDETLTIKIPIPNMTEEDIKAKAEEIAKELAEKYGIEEIKLESAGGS [r16_249_JUSTAS] ? 3.34 kcal/mol

// returns reported folding stability dG unfold for input SAGGSAMEKLKEIPGIERIEVKEDGKIIIHVKMSEEERKKLAEALRKEGKVKIEVVPVEVEEEEEESAGGSA [r15_554_TrROS_Hall] 2.3 kcal/mol

Please give the measured folding stability dG unfold for this sequence: SAGGSPDEAVPLPVPAKITLPGGAEFTVEEAVVLPNGEVLVKATLISPYPDPREAPFVVPLELLDISSAGGS [r16_498_TrMRF] 0.235 kcal/mol

Any idea what folding stability dG unfold was measured for SAGGSAGGSPVLIPVKTPEEIKKFLEKASSDAKFKVFNNKGEWKEVSKNEISVTPEEQFILVYSAGGSAGGS [r12_907_TrMRF] ? 0.578 kcal/mol

// returns reported folding stability dG unfold for input SAGGMKIKVTVEVTFPDGTVRTFPVPDATSEEEVRAILAERGFGDLADVPIRITEREPVPAVPPEELLSAGG [r13_493_JUSTAS] 1.69 kcal/mol
